Task for the reader: assign each of the following molecules its reported IC50.
biological target: hAhR (Homo sapiens, UniProt P35869); construct: Stably integrated DRE-luciferase cell lines were generated by transducing the both cell lines with Cignal XRE luciferase reporter (Qiagen) lentiviral particles; endogenous in cells; assay: AhR DRE-luciferase reporter transcriptional assay, antagonist mode (TCDD-induced); conditions: HEPG2 DRE-Luc cells, 3 nM TCDD, 24 hour incubation, relative IC50

Req: Value wanted: IC50 (hAhR (Homo sapiens, UniProt P35869)) of entry Cc1cc(-c2ncc3cc(C(F)(F)F)cc(C)c3n2)ccc1N(C)C(=O)c1ccnn1C [Example 111]
Resp: < 200 nM

Req: // repeat for Cc1cc(-c2cc(C)c3ccccc3n2)ccc1NC(=O)OC(C)(C)C [Example 015] and report
Resp: 1000 to 10000 nM

Req: Repeat for the following molecule: Cc1cc(-c2ncc3nc(C(F)(F)F)ccc3n2)ccc1NC(=O)c1ccnn1CC(C)O (stereo not shown) [Example 193]
Resp: 500 to 1000 nM

Req: And for Cc1cc(-c2ncc3cc(C(F)(F)F)ccc3n2)ccc1N(C)C(=O)OC(C)(C)C [Example 009] ?
Resp: 500 to 1000 nM

====

Molecular target: hAhR (Homo sapiens, UniProt P35869)
Construct: Stably integrated DRE-luciferase cell lines were generated by transducing the both cell lines with Cignal XRE luciferase reporter (Qiagen) lentiviral particles; endogenous in cells
Assay: AhR DRE-luciferase reporter transcriptional assay, antagonist mode (TCDD-induced)
Details: HEPG2 DRE-Luc cells, 3 nM TCDD, 24 hour incubation, relative IC50
Experimental: HEPG2 and HEPA1C1C7 cells were maintained in MEM and αMEM without nucleosides supplemented with 10% heat inactivated FBS respectively. […] Firefly luciferase activity was measured immediately following the addition of 50 μL Luciferase Assay Reagent (Promega). The percent maximal activity for each point was determined using the following equasion: (RLUsample-RLUvehicle−TCDD)/(RLUvehicle+TCDD RLUvehicle−TCDD)*100. […]
pIC50: −log10 of the molar value.
observedProperty: pIC50

Req: Given Cc1cc(-c2ccc3cc(F)ccc3n2)ccc1NC(=O)c1ccccn1 [Example 026] , state its recorded pIC50.
Resp: 6.00 to 6.30

Req: Next entry: Cc1cc(-c2ncc3nc(C(F)(F)F)cc(C)c3n2)ccc1N(C)C(=O)c1cc(C(N)=O)nn1CC#N [Example 198]
Resp: > 6.70

Req: Moving on to the next molecule: Cc1cc(-c2ccc3cc(F)ccc3n2)ccc1NC(=O)c1nccn1C [Example 033]
Resp: 6.30 to 6.70

Req: Try the molecule Cc1cc(-c2ncc3nc(C(F)(F)F)cc(C)c3n2)ccc1N(C)C(=O)c1ccnn1CCN1CCCC1 [Example 182]
Resp: > 6.70

====

Molecular target: hAhR (Homo sapiens, UniProt P35869)
Construct: Stably integrated DRE-luciferase cell lines were generated by transducing the both cell lines with Cignal XRE luciferase reporter (Qiagen) lentiviral particles; endogenous in cells
Sequence (P35869 11-848): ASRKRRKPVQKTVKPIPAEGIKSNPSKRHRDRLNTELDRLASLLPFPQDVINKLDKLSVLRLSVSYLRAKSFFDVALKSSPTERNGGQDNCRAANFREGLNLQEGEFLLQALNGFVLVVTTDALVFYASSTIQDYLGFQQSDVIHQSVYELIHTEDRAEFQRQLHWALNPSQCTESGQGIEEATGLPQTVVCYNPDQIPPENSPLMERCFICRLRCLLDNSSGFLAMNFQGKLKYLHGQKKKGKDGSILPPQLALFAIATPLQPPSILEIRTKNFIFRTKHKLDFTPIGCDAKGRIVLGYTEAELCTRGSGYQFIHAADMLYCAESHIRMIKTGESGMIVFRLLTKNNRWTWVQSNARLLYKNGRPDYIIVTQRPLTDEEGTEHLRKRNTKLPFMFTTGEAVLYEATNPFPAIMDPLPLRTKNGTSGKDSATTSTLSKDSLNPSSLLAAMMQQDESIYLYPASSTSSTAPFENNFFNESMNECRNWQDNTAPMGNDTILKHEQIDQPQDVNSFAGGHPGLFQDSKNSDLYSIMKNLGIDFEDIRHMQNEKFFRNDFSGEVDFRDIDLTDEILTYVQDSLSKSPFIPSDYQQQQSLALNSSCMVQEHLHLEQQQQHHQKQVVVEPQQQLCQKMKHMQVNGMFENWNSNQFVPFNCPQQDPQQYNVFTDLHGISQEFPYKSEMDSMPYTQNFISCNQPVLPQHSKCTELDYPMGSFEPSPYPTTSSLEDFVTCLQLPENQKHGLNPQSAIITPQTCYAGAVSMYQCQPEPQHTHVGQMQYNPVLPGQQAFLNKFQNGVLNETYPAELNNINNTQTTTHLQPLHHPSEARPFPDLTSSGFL
Test: AhR DRE-luciferase reporter transcriptional assay, antagonist mode (TCDD-induced)
Conditions: HEPG2 DRE-Luc cells, 3 nM TCDD, 24 hour incubation, relative IC50
Experimental: HEPG2 and HEPA1C1C7 cells were maintained in MEM and αMEM without nucleosides supplemented with 10% heat inactivated FBS respectively. […] Firefly luciferase activity was measured immediately following the addition of 50 μL Luciferase Assay Reagent (Promega). The percent maximal activity for each point was determined using the following equasion: (RLUsample-RLUvehicle−TCDD)/(RLUvehicle+TCDD RLUvehicle−TCDD)*100. […]
observedProperty: IC50

Req: Form field - read-out: IC50; system: hAhR (Homo sapiens, UniProt P35869); submitted item: Cc1cc(-c2ccc3cc(F)ccc3n2)ccc1NC(=O)c1ccnn1C
Resp: 200 to 500 nM

Req: Try the molecule Cc1cc(-c2ccc3c(C(F)(F)F)cccc3n2)ccc1NC(=O)c1ccnn1C
Resp: 200 to 500 nM

Req: // next record Cc1cc(-c2ccc3cc(F)ccc3n2)ccc1NC(=O)c1cnccn1
Resp: 500 to 1000 nM

Req: Would you kindly repeat that for Cc1cc(-c2ccc3cncc(Cl)c3c2)ccc1NC(=O)c1ccnn1C ?
Resp: 200 to 500 nM

Req: Repeat with Cc1cc(-c2ccc3c(ccn3C)n2)ccc1NC(=O)c1ccnn1C
Resp: 1000 to 10000 nM

Req: Subsequent entry: COc1cc(C(=O)Nc2ccc(-c3ncc4cc(C(F)(F)F)ccc4n3)cc2C)ccn1
Resp: < 200 nM

Req: And what about the molecule Cc1c(-c2ncc3cc(C(F)(F)F)ccc3n2)ccc(N(C)C(=O)c2ccnn2C)c1F ?
Resp: < 200 nM

Req: Same question for Cc1cc(-c2ccc3cc([N+](=O)[O-])ccc3n2)ccc1NC(=O)c1ccnn1C please.
Resp: < 200 nM

Req: What do you have for Cc1cc(-c2nc3cc(F)ccc3s2)ccc1NC(=O)c1ccnn1C ?
Resp: < 200 nM

Req: Then what about the molecule Cc1cc(-c2ccc3cc(C(F)(F)F)ccc3n2)ccc1NC(=O)c1ccnn1C ?
Resp: 200 to 500 nM

Req: Then what about the molecule Cc1cc(-c2nc(N)c3nc(C(F)(F)F)cc(C)c3n2)ccc1N(C)C(=O)c1ccnn1C ?
Resp: < 200 nM

Req: # iterate: Cc1cc(C(=O)Nc2ccc(-c3ncc4nc(C(F)(F)F)cc(C)c4n3)cc2F)ccn1
Resp: < 200 nM

Req: Try this molecule next: Cc1cc(-c2ccc3cnccc3c2)ccc1NC(=O)c1ccnn1C
Resp: 500 to 1000 nM

Req: And for Cc1cc(-c2ccc3cc(OC(F)(F)F)ccc3n2)ccc1N(C)C(=O)c1ccnn1C ?
Resp: 200 to 500 nM

Req: Also check Cc1cc(-c2ccc3nc(C(F)(F)F)ncc3n2)ccc1NC(=O)c1ccnn1C
Resp: 500 to 1000 nM

Req: Would you kindly repeat that for Cc1cc(C(=O)Nc2ccc(-c3ncc4cc(C(F)(F)F)ccc4n3)cc2C)ccn1 ?
Resp: < 200 nM

Req: What about COc1cnccc1C(=O)N(C)c1ccc(-c2ncc3nc(C(F)(F)F)cc(C)c3n2)cc1C ?
Resp: < 200 nM
